From: ChEMBL document CHEMBL1201862

Test system: OVCAR-8
Assay remarks: NCI tumour cell line growth inhibition, 48 h
The source made the active and inactive calls. Rule as the data show it: active = GI50 up to about 1.1 µM and inactive = higher.
Reported values of GI50 for individual entries

GI50 for "CC1=C(C(=O)Nc2ccccc2)C(c2ccc([N+](=O)[O-])cc2)C(C(=O)Nc2ccccc2)=C(C)N1" is 17.3 µM (inactive)

GI50 for "Cc1cc2c(cc1C)C(=O)c1ncccc1C2=O" is 31.9 µM (inactive)

GI50 for "CCN(CC)CCC/N=c1\c2cc(OC)ccc2[nH]c2c([N+](=O)[O-])ccc(NCCCN(CC)CC)c12" is 1.03 µM (active)

----------
Test system: OVCAR-3
Assay remarks: NCI tumour cell line growth inhibition, 48 h
Activity calls are given as the source filed them. Rule as the data show it: active = GI50 up to about 1.1 µM and inactive = higher.
Pick from active, inactive when you respond.

# Molecule, Assigned class
data = [
    ("S=C1N=C2C(=N1)n1c3c(c4ccccc41)CCCC23 (stereo not given)", "inactive"),
]

Enquiry: State the result this test recorded for O=C1CN2C(Cl)(Cl)C2(c2ccccc2)c2cc(Cl)ccc2N1CC1CC1 (stereo not given) .
Return: inactive

Enquiry: State the result this test recorded for CC1[C@@H]2CC=C3C4CCC5Cc6nc7c(nc6C[C@@]5(C)C4CC(=O)[C@]32CO[C@@]1(O)C(O)CC(C)(C)O)CC1CCC2C3=C[C@H]4O[C@@]5(O[C@@](C)(CO)C[C@@H]5O)C(C)[C@@]4(O)[C@]3(C)[C@@H](O)CC2[C@]1(C)C7 (stereo not given in full) .
Return: active

Enquiry: State the result this test recorded for CCN1CCC(O)(/C=C/c2ccc(C)cc2)C(C(=O)/C=C/c2ccc(C)cc2)C1 (stereo not given) .
Return: inactive

Enquiry: State the result this test recorded for Cc1ccc(S(=O)(=O)N/N=C(\c2nc3ccc([N+](=O)[O-])cc3[nH]c2=O)C(O)c2ccc([N+](=O)[O-])cc2)cc1 (stereo not given) .
Return: inactive
